- Tested on: P388
- procedureText: Cytotoxicity against mouse P388 cells after 72 hrs by MTT assay
- Format: functional, cell-based
- assaySetup: Mus musculus, P388, 72 h
pIC50: −log10 of the molar value.
Attribute: pIC50
measuredAttribute: pIC50

{"moleculeSmiles": "CN1CCN(CCCCNc2cc3c4ccccc4ccc3c3ccccc23)CC1", "measuredAttribute": "pIC50", "value": 4.71}
{"moleculeSmiles": "CN1CCN(C(=O)CCC(=O)Nc2cc3c4ccccc4c(NC(=O)CCC(=O)N4CCN(C)CC4)cc3c3ccccc23)CC1", "measuredAttribute": "pIC50", "value": 4.01}
{"moleculeSmiles": "CN1CCN(C(=O)CCC(=O)Nc2cc3c4ccccc4ccc3c3ccccc23)CC1", "measuredAttribute": "pIC50", "value": 5.22}
{"moleculeSmiles": "c1ccc2c(c1)ccc1c3ccccc3c(NCCCCN3CCCCC3)cc21", "measuredAttribute": "pIC50", "value": 5.66}
{"moleculeSmiles": "c1ccc2c(c1)c(NCCCCN1CCCCC1)cc1c3ccccc3c(NCCCCN3CCCCC3)cc21", "measuredAttribute": "pIC50", "value": 5.70}
{"moleculeSmiles": "O=C(CCC(=O)N1CCCCC1)Nc1cc2c3ccccc3c(NC(=O)CCC(=O)N3CCCCC3)cc2c2ccccc12", "measuredAttribute": "pIC50", "value": 4.42}
